Attribute: pIC50
Target: FTO (Homo sapiens, UniProt Q9C0B1)
Sequence (Q9C0B1 whole entry): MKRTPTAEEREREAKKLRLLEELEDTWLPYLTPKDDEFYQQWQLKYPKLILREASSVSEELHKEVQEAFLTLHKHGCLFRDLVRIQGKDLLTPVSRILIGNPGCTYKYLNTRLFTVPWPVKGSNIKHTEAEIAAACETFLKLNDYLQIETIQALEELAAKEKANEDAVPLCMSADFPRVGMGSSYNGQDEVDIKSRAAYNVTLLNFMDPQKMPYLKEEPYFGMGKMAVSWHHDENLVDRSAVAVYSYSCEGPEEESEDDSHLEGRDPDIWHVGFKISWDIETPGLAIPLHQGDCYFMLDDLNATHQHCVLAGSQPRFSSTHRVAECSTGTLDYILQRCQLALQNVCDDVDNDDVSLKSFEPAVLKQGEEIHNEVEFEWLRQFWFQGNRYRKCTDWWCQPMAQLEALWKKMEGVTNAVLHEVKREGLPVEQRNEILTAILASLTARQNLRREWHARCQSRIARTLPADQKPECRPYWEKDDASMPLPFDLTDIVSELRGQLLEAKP
Test: demethylation reaction catalyzed by FTO (enzymatic inhibition, HPLC-MS/MS of N6-mA and A)
Format: biochemical
Conditions: exemplary IC50 data of representative compounds; read-out: Enzymatic inhibition (IC50)
pIC50: −log10 of the molar value.

Below, 10 compounds whose answers are already recorded.
N#C/C(=C\c1cc(O)c(O)c([N+](=O)[O-])c1)C(=O)NO [Compound 664] = ~6.00
CC(NC(=O)/C(C#N)=C/c1cc(O)c(O)c([N+](=O)[O-])c1)C(=O)O (centres unmarked) [Compound 712] = ~6.00
N#C/C(=C(/O)c1cc(O)c(O)c([N+](=O)[O-])c1)c1cnccn1 [Compound 523] = > 6.00
N#C/C(=C\c1cc(O)c(O)c([N+](=O)[O-])c1)C(=O)NCC(=O)O [Compound 709] = > 6.00
N#CC(=Cc1cc(O)c(O)c([N+](=O)[O-])c1)c1ccccn1 (stereo in doubt) [Compound 315] = ~6.00
CCNC(=O)/C(C#N)=C(\O)c1cc(O)c(O)c([N+](=O)[O-])c1 [Compound 691] = > 6.00
N#C/C(=C\c1cc(O)c(O)c([N+](=O)[O-])c1)C(=O)NCCO [Compound 688] = < 6.00
N#CC(=Cc1cc(O)c(O)c([N+](=O)[O-])c1)c1ccc[n+]([O-])c1 (stereo in doubt) [Compound 518] = < 6.00
COc1cc(/C(O)=C(\C#N)c2cnccn2)cc([N+](=O)[O-])c1O [Compound 524] = ~6.00
N#C/C(C(=O)Nc1ncns1)=C(/O)c1cc(O)c(O)c([N+](=O)[O-])c1 [Compound 668] = > 6.00

[Q] For FTO (Homo sapiens, UniProt Q9C0B1), provide pIC50 of N#C/C(=C\c1cc(O)c(O)c([N+](=O)[O-])c1)C(=O)c1cscn1 [Compound 698] please.
[A] < 6.00

[Q] // next record N#C/C(=C\c1cc(O)c(O)c([N+](=O)[O-])c1)C(=O)Nc1cccc(Cl)c1 [Compound 365]
[A] ~6.00

[Q] // next record N#C/C(C(=O)NC1CC1)=C(/N)c1cc(O)c(O)c([N+](=O)[O-])c1 [Compound 692N]
[A] < 6.00

[Q] // next record N#C/C(=C\c1cc(O)c(O)c([N+](=O)[O-])c1)c1cccnc1 [Compound 319]
[A] > 6.00

[Q] // next record N#CC(=Cc1cc(O)c(O)c([N+](=O)[O-])c1)c1cccnn1 (stereo in doubt) [Compound 505]
[A] > 6.00

[Q] // next record N#C/C(=C\c1cc(O)c(O)c([N+](=O)[O-])c1)c1nc(C(=O)O)cs1 [Compound 666]
[A] > 6.00

[Q] // next record CCNC(=O)/C(C#N)=C(\N)c1cc(O)c(O)c([N+](=O)[O-])c1 [Compound 691N]
[A] ~6.00
